# tgt: T1, Wild type CD117 purified protein (human, UniProt P10721 26-520, limits assumed)
# T1 construct: Protein used in BLI/kinetics and cryo-EM; also called wt CD117; Wt CD117
# assayMethodText: binding kinetics, FIGS. 45A-45K
Label Fulfilled when kon is at or above 700000 M⁻¹ s⁻¹; otherwise label Not fulfilled.

Q: Could you please find out whether ABTx052 variant VH_R59K (antibody, human IgG1, V domains shown) VH: QVQLVQSGAAVKKPGESLKISCKGSGYRFTSYWIGWVRQMPGKGLEWMGIIYPGDSDTKYSPSFQGQVTISAGKSISTAYLQWSSLKASDTAMYYCARHGRGYNGYEGAFDIWGQGTMVTVSS VL: AIQLTQSPSSLSASVGDRVTITCRASQGISSALAWYQQKPGKAPKLLIYDASSLESGVPSRFSGSGSGTDFTLTISSLQPEDFATYYCQQFNSYPLTFGGGTKVEIKR has kon that meets 700000 M⁻¹ s⁻¹ or exceeds it?
Result: Fulfilled

Q: Kindly determine if kon recorded for ABTx052 variant VL_F91T (antibody, human IgG1, V domains shown) VH: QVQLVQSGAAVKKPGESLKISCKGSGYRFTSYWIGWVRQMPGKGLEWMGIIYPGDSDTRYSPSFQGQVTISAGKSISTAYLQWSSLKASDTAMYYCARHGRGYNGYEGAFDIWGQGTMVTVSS VL: AIQLTQSPSSLSASVGDRVTITCRASQGISSALAWYQQKPGKAPKLLIYDASSLESGVPSRFSGSGSGTDFTLTISSLQPEDFATYYCQQTNSYPLTFGGGTKVEIK is above or exactly 700000 M⁻¹ s⁻¹.
Result: Not fulfilled

Q: Confirm if kon reported for the binder ABTx052 variant VL_N92R (antibody, human IgG1, V domains shown) VH: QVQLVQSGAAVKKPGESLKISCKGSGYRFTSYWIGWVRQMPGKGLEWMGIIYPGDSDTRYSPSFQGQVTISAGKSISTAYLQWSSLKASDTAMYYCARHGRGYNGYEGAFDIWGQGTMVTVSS VL: AIQLTQSPSSLSASVGDRVTITCRASQGISSALAWYQQKPGKAPKLLIYDASSLESGVPSRFSGSGSGTDFTLTISSLQPEDFATYYCQQFRSYPLTFGGGTKVEIK is 700000 M⁻¹ s⁻¹ or above.
Result: Not fulfilled

Q: Evaluate ABTx052 variant VL_Y94H (antibody, human IgG1, V domains shown) VH: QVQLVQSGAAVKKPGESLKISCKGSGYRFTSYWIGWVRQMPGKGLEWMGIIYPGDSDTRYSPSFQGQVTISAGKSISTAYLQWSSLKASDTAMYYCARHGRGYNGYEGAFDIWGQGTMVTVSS VL: AIQLTQSPSSLSASVGDRVTITCRASQGISSALAWYQQKPGKAPKLLIYDASSLESGVPSRFSGSGSGTDFTLTISSLQPEDFATYYCQQFNSHPLTFGGGTKVEIK : kon at minimum 700000 M⁻¹ s⁻¹?
Result: Not fulfilled

Q: Given the entry ABTx052 variant VL_N92Y (antibody, human IgG1, V domains shown) VH: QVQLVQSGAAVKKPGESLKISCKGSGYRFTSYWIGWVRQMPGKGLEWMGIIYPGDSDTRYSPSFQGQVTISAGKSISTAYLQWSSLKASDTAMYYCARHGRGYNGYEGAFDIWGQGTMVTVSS VL: AIQLTQSPSSLSASVGDRVTITCRASQGISSALAWYQQKPGKAPKLLIYDASSLESGVPSRFSGSGSGTDFTLTISSLQPEDFATYYCQQFYSYPLTFGGGTKVEIK , answer whether its kon meets or surpasses 700000 M⁻¹ s⁻¹.
Result: Fulfilled
